All values here come from ChEMBL document CHEMBL2331093.

target: Amine oxidase [flavin-containing] A (Homo sapiens)
Sequence (P21397 whole entry): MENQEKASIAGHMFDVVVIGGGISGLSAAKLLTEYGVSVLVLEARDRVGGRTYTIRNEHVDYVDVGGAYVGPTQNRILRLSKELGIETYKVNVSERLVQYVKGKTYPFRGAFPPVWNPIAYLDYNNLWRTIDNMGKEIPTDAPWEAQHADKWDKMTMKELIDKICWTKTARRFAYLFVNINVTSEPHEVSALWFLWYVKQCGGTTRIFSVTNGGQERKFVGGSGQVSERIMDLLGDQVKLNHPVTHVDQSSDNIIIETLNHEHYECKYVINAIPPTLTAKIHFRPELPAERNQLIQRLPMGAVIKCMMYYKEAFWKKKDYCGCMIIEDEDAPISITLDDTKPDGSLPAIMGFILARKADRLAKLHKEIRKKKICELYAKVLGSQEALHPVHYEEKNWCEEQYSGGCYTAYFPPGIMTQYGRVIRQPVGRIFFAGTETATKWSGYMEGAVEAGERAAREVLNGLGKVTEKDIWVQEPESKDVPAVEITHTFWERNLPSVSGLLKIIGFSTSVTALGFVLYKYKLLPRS
protocol.description: Inhibition of recombinant human MAO-A assessed as inhibition of kynuramine oxidation by spectrophotometry
pIC50: −log10 of the molar value.
pIC50 by entry:

Worked set:
C#CCN(C)[C@H](CF)Cc1ccco1 :: < 5.70
C#CCN(C)[C@H](CF)CC(C)C :: < 5.70

Input: Which value of pIC50 has been reported for C#CCN(C)[C@H](CF)CC(=C)C in the records?
Output: < 5.70

---

target: UniProt P27338
Sequence (P27338 whole entry): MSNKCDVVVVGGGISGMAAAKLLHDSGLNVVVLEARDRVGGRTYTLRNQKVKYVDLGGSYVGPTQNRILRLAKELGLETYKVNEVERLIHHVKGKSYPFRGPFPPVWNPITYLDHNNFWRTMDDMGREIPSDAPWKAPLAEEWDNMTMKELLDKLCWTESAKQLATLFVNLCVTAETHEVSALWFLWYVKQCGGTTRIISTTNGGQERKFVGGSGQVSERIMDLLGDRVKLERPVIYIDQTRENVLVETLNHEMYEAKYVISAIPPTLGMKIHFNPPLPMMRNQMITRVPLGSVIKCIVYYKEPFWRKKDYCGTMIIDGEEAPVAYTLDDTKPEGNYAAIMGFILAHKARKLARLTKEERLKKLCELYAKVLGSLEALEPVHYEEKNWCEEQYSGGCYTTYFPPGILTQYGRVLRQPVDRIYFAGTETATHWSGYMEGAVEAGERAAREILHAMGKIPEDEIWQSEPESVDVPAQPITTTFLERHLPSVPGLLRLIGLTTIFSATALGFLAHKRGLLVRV
protocol.description: Inhibition of recombinant human MAO-B assessed as inhibition of kynuramine oxidation by spectrophotometry
readout.label: IC50 (µM)
Write the number in µM without appending the unit.

Worked set:
C#CCN(C)[C@H](CF)CC(=C)C :: 0.664
C#CCN(C)[C@H](CF)Cc1ccco1 :: 0.208

With those in mind, consider the next molecule.
Input: Which value of IC50 has been reported for C#CCN(C)[C@H](CF)CC(C)C in the records?
Output: 0.132

---

protocol.description: Metabolic stability in cynomolgus monkey plasma assessed as parent compound at 168 MBq, iv after 45 mins by HPLC analysis
Type: ADME, organism-based, Macaca fascicularis
measurement.parameters: read-out: Stability
readout.label: remaining at 0.75 h
Write down the value, and be sure its unit follows.

Input: Which value of remaining at 0.75 h has been reported for C#CCN(C)[C@H](C[18F])CC(C)C in the records?
Output: 20%

---

protocol.description: Metabolic stability in cynomolgus monkey plasma assessed as parent compound at 168 MBq, iv after 120 mins by HPLC analysis
Type: ADME, organism-based, Macaca fascicularis
measurement.parameters: read-out: Stability
readout.label: remaining at 2 h (%)
Write the number in % without appending the unit.

Input: Which value of remaining at 2 h has been reported for C#CCN(C)[C@H](C[18F])CC(C)C in the records?
Output: 12
